The measured values listed here are drawn from patent US6479435B1.

Form field: RICE crop damage rating (one value per entry).
Test system: upland rice (Oryza sp., var.Tebonnet, RICE)
Assay: Pre-emerge greenhouse test, crop damage rating
Format: in vivo
Conditions: Rate 125 g al/ha, 14 days after application, rating scale 0-100
READOUT_KIND: RICE crop damage rating

1. O=c1n(-c2cc(Oc3nccc(Cl)n3)c(Cl)cc2F)c(=S)n2n1CCCC2 [Compound 8-31] = 0
2. CC(C)S(=O)(=O)c1cccnc1Oc1cc(-n2c(=O)n3n(c2=S)CCCC3)c(F)cc1Cl [Compound 8-37] = 10
3. O=c1n(-c2cc(Oc3ncc([N+](=O)[O-])s3)c(Cl)cc2F)c(=S)n2n1CCCC2 [Compound 8-36] = 30
4. Nc1ccc(Oc2cc(-n3c(=O)n4n(c3=S)CCCC4)c(F)cc2Cl)nc1 [Compound 8-24] = 0
5. CCOC(=O)C(C)Oc1ccc(Oc2cc(-n3c(=O)n4n(c3=O)CCCC4)c(F)cc2Cl)c([N+](=O)[O-])c1 (stereo not shown) [Compound 8-41] = 0
6. COc1cc(Oc2cc(-n3c(=O)n4n(c3=S)CCCC4)c(F)cc2Cl)nc(OC)n1 [Compound 8-32] = 0
7. O=c1n(-c2cc(Oc3nccc(C(F)(F)F)n3)c(Cl)cc2F)c(=S)n2n1CCCC2 [Compound 8-30] = 20
8. N#Cc1cccnc1Oc1cc(-n2c(=O)n3n(c2=S)CCCC3)c(F)cc1Cl [Compound 8-20] = 20
9. Nn1c(C(F)(F)F)cc(=O)n(-c2cc(Oc3cccc(F)n3)c(Cl)cc2F)c1=O [Compound 9-4] = 40
10. O=c1n(-c2cc(Oc3ccc([N+](=O)[O-])cn3)c(Cl)cc2F)c(=S)n2n1CCCC2 [Compound 8-23] = 0
11. O=c1n(-c2cc(Oc3ncccc3[N+](=O)[O-])c(Cl)cc2F)c(=S)n2n1CCCC2 [Compound 8-19] = 50
12. CCOC(=O)C(C)Oc1cc([N+](=O)[O-])c(Oc2cc(-n3c(=O)n4n(c3=S)CCCC4)c(F)cc2Cl)cc1Cl (stereo not shown) [Compound 8-38] = 0
13. Nc1cccnc1Oc1cc(-n2c(=O)n3n(c2=S)CCCC3)c(F)cc1Cl [Compound 8-42] = 0
14. Nn1c(C(F)(F)F)cc(=O)n(-c2cc(Oc3cccc(C(F)(F)F)c3)c(Cl)cc2F)c1=O [Compound 9-25] = 40
15. CCOC(=O)C(C)Oc1ccc(Oc2cc(-n3c(=O)n4n(c3=S)CCCC4)c(F)cc2Cl)c(N)c1 (stereo not shown) [Compound 8-40] = 0
16. O=c1n(-c2cc(Oc3ccccn3)c(Cl)cc2F)c(=S)n2n1CCCC2 [Compound 8-17] = 50

###

System: upland rice (Oryza sp., var.Tebonnet, RICE)
Assay: Post-emerge greenhouse test, crop damage rating
Assay type: in vivo
Conditions: 500 g al/ha, 14 days after application
Form field: RICE crop damage rating (0-100) (one value per entry).
READOUT_KIND: RICE crop damage rating (0-100)

1) O=c1sc(=Nc2cc(Oc3ncccn3)c(Cl)cc2F)n2n1CCCC2 [Compound 7-2] = 95
2) CCN1CC(=O)N(c2cc(Oc3ncccn3)c(Cl)cc2F)C1=O [Compound 8-2] = 70
3) Cn1c(C(F)(F)F)nc(-c2cc(Oc3ncccn3)c(Cl)cc2F)c1Cl [Compound 2-3] = 90
4) Cn1nc(-c2cc(Oc3ncccc3[N+](=O)[O-])c(Cl)cc2F)c(Cl)c1C(F)(F)F [Compound 1-1] = 90
5) O=c1n(CCCF)nnn1-c1cc(Oc2ncccc2C(F)(F)F)c(Cl)cc1Cl [Compound 6-7] = 50
6) N#Cc1ccccc1Oc1cc(-n2c(=O)n3n(c2=S)CCCC3)c(F)cc1Cl [Compound 8-7] = 50
7) O=c1n(-c2cc(Oc3ccccc3[N+](=O)[O-])c(Cl)cc2F)c(=S)n2n1CCCC2 [Compound 8-6] = 50
8) CCOC(=O)C(C)Oc1ccc(Oc2cc(-n3c(=O)n4n(c3=S)CCCC4)c(F)cc2Cl)cc1 (stereo not shown) [Compound 8-11] = 50
9) O=c1n(-c2cc(Oc3ccc([N+](=O)[O-])cc3)c(Cl)cc2F)c(=S)n2n1CCCC2 [Compound 8-8] = 10
10) Cc1nsc(Oc2cc(-n3nnn(CCCF)c3=O)c(F)cc2Cl)c1[N+](=O)[O-] [Compound 6-17] = 0
11) Cn1nc(-c2cc(Oc3cccc(F)n3)c(Cl)cc2F)c(Cl)c1C(F)(F)F [Compound 1-5] = 80
12) Cn1nc(-c2cc(Oc3ncccc3C#N)c(Cl)cc2F)c(Cl)c1C(F)(F)F [Compound 1-3] = 70
13) COc1cc(OC)nc(Oc2cc(-n3nnn(CCCF)c3=O)c(F)cc2Cl)n1 [Compound 6-15] = 5
14) O=c1n(-c2cc(Oc3ccccc3)c(Cl)cc2F)c(=S)n2n1CCCC2 [Compound 8-5] = 10
15) O=c1n(CCCF)nnn1-c1cc(Oc2ncccn2)c(Cl)cc1Cl [Compound 6-14] = 50
16) O=C1C2=CCCCN2C(=O)N1c1cc(Oc2ncccc2C(F)(F)F)c(Cl)cc1F [Compound 4-2] = 10
17) O=c1cc2n(c(=O)n1-c1cc(Oc3ncccn3)c(Cl)cc1F)CCC2 [Compound 5-12] = 70
18) O=c1n(CCCF)nnn1-c1cc(Oc2ncccc2[N+](=O)[O-])c(Cl)cc1F [Compound 6-2] = 30
19) O=C1C2CCCCN2C(=O)N1c1cc(Oc2ncccc2C(F)(F)F)c(Cl)cc1F (stereo not shown) [Compound 8-4] = 0
20) Nc1ccc(Oc2cc(-n3c(=O)n4n(c3=S)CCCC4)c(F)cc2Cl)cc1 [Compound 8-9] = 0
21) N#Cc1cccnc1Oc1cc(-n2nnn(CCCF)c2=O)c(F)cc1Cl [Compound 6-4] = 35
22) CN1CC(=O)N(c2cc(Oc3ncccn3)c(Cl)cc2F)C1=O [Compound 8-3] = 0
23) Cn1nc(-c2cc(Oc3ccc(C#N)cn3)c(Cl)cc2F)c(Cl)c1C(F)(F)F [Compound 1-4] = 50
24) Cn1c(C(F)(F)F)nc(-c2cc(Oc3ncccc3[N+](=O)[O-])c(Cl)cc2F)c1Cl [Compound 2-1] = 20
25) Cn1nc(-c2cc(Oc3ncccn3)c(Cl)cc2F)c(Cl)c1C(F)(F)F [Compound 1-7] = 80
26) N#Cc1cccnc1Oc1cc(-n2nnn(CCCF)c2=O)c(Cl)cc1Cl [Compound 6-5] = 30
27) Cn1nc(-c2cc(Oc3ncccc3C(F)(F)F)c(Cl)cc2F)c(Cl)c1C(F)(F)F [Compound 1-2] = 0
28) Cn1c(C(F)(F)F)nc(-c2cc(Oc3ncccc3C(F)(F)F)c(Cl)cc2F)c1Cl [Compound 2-2] = 40
29) CS(=O)(=O)Nc1ccc(Oc2cc(-n3c(=O)cc4n(c3=O)CCC4)c(F)cc2Cl)cc1 [Compound 5-5] = 0
30) O=c1n(CCCF)nnn1-c1cc(Oc2ncccc2C(F)(F)F)c(Cl)cc1F [Compound 6-6] = 40
31) O=c1n(CCCF)nnn1-c1cc(Oc2ncc(Br)cn2)c(Cl)cc1F [Compound 6-16] = 40
32) O=c1n(-c2cc(Oc3ccc([N+](=O)[O-])cc3C(F)(F)F)c(Cl)cc2F)c(=S)n2n1CCCC2 [Compound 8-14] = 0
33) O=c1n(CCCF)nnn1-c1cc(Oc2ccc(C(F)(F)F)cn2)c(Cl)cc1F [Compound 6-8] = 35
34) Nc1ccc(Oc2cc(-n3c(=O)n4n(c3=S)CCCC4)c(F)cc2Cl)c(C(F)(F)F)c1 [Compound 8-15] = 0

###

Form field: CORN crop damage rating (0-100) (one value per entry).
Tested on: field corn (Zea mays L., var. Dekalb 535, CORN)
Test: Post-emerge greenhouse test, crop damage rating
Assay type: in vivo
Details: 1000 g al/ha, 14 days after application
READOUT_KIND: CORN crop damage rating (0-100)

1. Nc1ccc(Oc2cc(-n3c(=O)cc4n(c3=O)CCC4)c(F)cc2Cl)cc1 [Compound 5-3] = 0
2. CCOC(=O)C(C)Oc1ccc(Oc2cc(-n3c(=O)cc4n(c3=O)CCC4)c(F)cc2Cl)cc1 (stereo not shown) [Compound 5-6] = 80
3. N#Cc1cccnc1Oc1cc(-n2c(=O)cc3n(c2=O)CCC3)c(F)cc1Cl [Compound 5-9] = 5
4. O=c1cc2n(c(=O)n1-c1cc(Oc3ccc([N+](=O)[O-])cc3)c(Cl)cc1F)CCC2 [Compound 5-2] = 0
5. N#Cc1ccc(Oc2cc(-n3c(=O)cc4n(c3=O)CCC4)c(F)cc2Cl)nc1 [Compound 5-11] = 15
6. O=c1cc2n(c(=O)n1-c1cc(Oc3ncccc3[N+](=O)[O-])c(Cl)cc1F)CCC2 [Compound 5-8] = 0
7. O=c1cc2n(c(=O)n1-c1cc(Oc3ccccc3[N+](=O)[O-])c(Cl)cc1F)CCC2 [Compound 5-1] = 0
